Test system: 743489-274-T-PDC complex spheroid viability
MEASUREMENT_PROTOCOL: Anticancer human tumor 743489-274-T-PDC patient-derived renal cell carcinoma cell line growth inhibition
ASSAY_CONTEXT: second compound 10 µM; first compound 0.0316 µM; stronger effect = lower value
QUANTITY_MEASURED: viability, T/C (%)

1. Nc1ncn(C2CC(O)C(CO)O2)c(=O)n1 (centres undefined) + NC1CC1c1ccc(-c2cccc(O)c2)cc1 : 104
2. CC1COCCN1c1cc(-c2ccnn2C)c2ccnc(-c3ccn[nH]3)c2n1 (centres undefined) + NC1CC1c1ccc(-c2cccc(O)c2)cc1 : 80
3. O=C(c1cc(Cc2n[nH]c(=O)c3ccccc23)ccc1F)N1CCN(C(=O)C2CC2)CC1 + NC1CC1c1ccc(-c2cccc(O)c2)cc1 : 118
4. COc1ccc([C@@H](O)c2cc(-c3ncnc4cc(N5CCOCC5)ccc34)c(F)cc2Cl)nn1 + NC1CCC(NC2CC2c2ccccc2)CC1 : 117
5. CC(C)c1c(-c2ccccc2)nc2c(C#N)c[nH]n2c1=O + NC1CCC(NC2CC2c2ccccc2)CC1 : 118
6. CC(C)CC(NC(=O)C(Cc1ccccc1)NC(=O)c1cnccn1)B(O)O (centres undefined) + NC1CCC(NC2CC2c2ccccc2)CC1 : 22.1
7. O=C(C=Cn1cnc(-c2cc(C(F)(F)F)cc(C(F)(F)F)c2)n1)NNc1cnccn1 + NC1CCC(NC2CC2c2ccccc2)CC1 : 126
8. CC1COCCN1c1cc(C2(S(C)(=N)=O)CC2)nc(-c2ccnc3[nH]ccc23)n1 (centres undefined) + NC1CCC(NC2CC2c2ccccc2)CC1 : 112
9. CC(C)CC(NC(=O)C(Cc1ccccc1)NC(=O)c1cnccn1)B(O)O (centres undefined) + NC1CC1c1ccc(-c2cccc(O)c2)cc1 : 25.5
10. CC[C@@]1(O)C(=O)OCc2c1cc1n(c2=O)Cc2cc3c(CN(C)C)c(O)ccc3nc2-1 + NC1CCC(NC2CC2c2ccccc2)CC1 : 85.1
11. O=C(c1cc(Cc2n[nH]c(=O)c3ccccc23)ccc1F)N1CCN(C(=O)C2CC2)CC1 + NC1CCC(NC2CC2c2ccccc2)CC1 : 108
12. COc1cc(Nc2ncc3c(n2)-c2ccc(Cl)cc2C(c2c(F)cccc2OC)=NC3)ccc1C(=O)O + NC1CC1c1ccc(-c2cccc(O)c2)cc1 : 85.3
13. O=C(C=Cn1cnc(-c2cc(C(F)(F)F)cc(C(F)(F)F)c2)n1)NNc1cnccn1 + NC1CC1c1ccc(-c2cccc(O)c2)cc1 : 102
14. CC(C)CC(NC(=O)CNC(=O)c1cc(Cl)ccc1Cl)B1OC(=O)CC(CC(=O)O)(C(=O)O)O1 (centres undefined) + NC1CC1c1ccc(-c2cccc(O)c2)cc1 : 59.7

* * *

// reported viability, T/C for each item listed
Test system: 743489-274-T-PDC complex spheroid viability
MEASUREMENT_PROTOCOL: Anticancer human tumor 743489-274-T-PDC cell line growth inhibition;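 further: spheroids exposed to compounds for 7 days before readout; 100% = DMSO vehicle control wells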
ASSAY_CONTEXT: second compound 3.16 µM; first compound 0.03 µM; stronger effect = lower value
QUANTITY_MEASURED: viability, T/C

1. Nc1ccccc1NC(=O)c1ccc(CNC(=O)OCc2cccnc2)cc1 + NC1CC1c1ccc(-c2cccc(O)c2)cc1 : 84.5%
2. CCN(c1cc(-c2ccc(CN3CCOCC3)cc2)cc(C(=O)NCc2c(C)cc(C)[nH]c2=O)c1C)C1CCOCC1 + NC1CC1c1ccc(-c2cccc(O)c2)cc1 : 104%
3. CCc1c2c(nc3ccc(O)cc13)-c1cc3c(c(=O)n1C2)COC(=O)[C@]3(O)CC + NC1CCC(NC2CC2c2ccccc2)CC1 : 48.2%
4. CCN(c1cc(-c2ccc(CN3CCOCC3)cc2)cc(C(=O)NCc2c(C)cc(C)[nH]c2=O)c1C)C1CCOCC1 + NC1CCC(NC2CC2c2ccccc2)CC1 : 106%
5. Nc1ncn(C2CC(O)C(CO)S2)c(=O)n1 (centres undefined) + NC1CCC(NC2CC2c2ccccc2)CC1 : 108%
6. Nc1ccn(C2OC(CO)C(O)C2(F)F)c(=O)n1 (centres undefined) + NC1CCC(NC2CC2c2ccccc2)CC1 : 78.8%
7. COc1cc(C2c3cc4c(cc3C(OC3OC5COC(C)OC5C(O)C3O)C3COC(=O)C23)OCO4)cc(OC)c1O (centres undefined) + NC1CCC(NC2CC2c2ccccc2)CC1 : 113%
8. NS(=O)(=O)OCC1CC(n2ccc3c(NC4CCc5ccccc54)ncnc32)CC1O (centres undefined) + NC1CCC(NC2CC2c2ccccc2)CC1 : 107%
9. Nc1ccccc1NC(=O)c1ccc(CNC(=O)OCc2cccnc2)cc1 + NC1CCC(NC2CC2c2ccccc2)CC1 : 97.4%
